Would you kindly list kon for each of these binders?
# System Name: T1, cSNK:BSA conjugate (bovine, head-to-tail cyclized; conjugated to BSA carrier)
# T1 construct: also called BSA-cSNK
# T1 sequence (P02769 25-607 limits assumed): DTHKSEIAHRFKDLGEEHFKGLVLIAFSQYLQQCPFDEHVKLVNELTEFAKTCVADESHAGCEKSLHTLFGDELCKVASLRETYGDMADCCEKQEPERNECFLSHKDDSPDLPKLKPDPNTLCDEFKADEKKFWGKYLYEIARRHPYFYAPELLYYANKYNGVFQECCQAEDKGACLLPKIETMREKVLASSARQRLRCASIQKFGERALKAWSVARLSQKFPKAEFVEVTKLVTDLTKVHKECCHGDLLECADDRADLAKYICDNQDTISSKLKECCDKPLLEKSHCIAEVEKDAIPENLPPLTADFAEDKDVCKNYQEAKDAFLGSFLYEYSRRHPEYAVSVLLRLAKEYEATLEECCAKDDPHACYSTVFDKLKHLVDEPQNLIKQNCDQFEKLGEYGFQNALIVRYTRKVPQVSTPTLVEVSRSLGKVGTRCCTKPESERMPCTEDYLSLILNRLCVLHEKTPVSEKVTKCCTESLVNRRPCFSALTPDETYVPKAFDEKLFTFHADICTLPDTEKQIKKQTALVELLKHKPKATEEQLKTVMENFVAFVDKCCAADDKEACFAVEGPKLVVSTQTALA
# Assay Comment: BLI 2:1 fit, site 2 (kon2); 12.5 nM row
# Experimental: Biolayer interferometry (Octet […], ForteBio) was used to qualitatively/quantitatively assess the interactions between humanized versions of 5E3 and cSNK:BSA conjugate. […] MAbs were loaded onto sensors and then washed in PBST. Each sensor was associated with one of several cSNK:BSA standards (100 nM to 0 nM) and then washed in PBST. […] For each mAb analyzed, a 2:1 model provided the “best fit”.
Give just the number in M⁻¹ s⁻¹; leave the unit off.

Task item: Indicate its recorded kon; the binder in question is rehu5E3-IgG4 (antibody, V domains shown, human IgG4/kappa; also called IgG4 rehu version) VH: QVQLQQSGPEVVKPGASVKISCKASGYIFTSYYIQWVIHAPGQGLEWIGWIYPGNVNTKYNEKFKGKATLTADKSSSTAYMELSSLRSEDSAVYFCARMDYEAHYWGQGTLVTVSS VL: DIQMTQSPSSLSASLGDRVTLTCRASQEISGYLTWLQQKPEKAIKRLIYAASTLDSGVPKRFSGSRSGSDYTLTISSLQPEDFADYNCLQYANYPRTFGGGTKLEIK
Reply: 4.44e+06

Task item: Indicate its recorded kon; the binder in question is hu5E3-IgG4 (antibody, V domains shown, human IgG4/kappa; also called humanized 5E3 IgG4) VH: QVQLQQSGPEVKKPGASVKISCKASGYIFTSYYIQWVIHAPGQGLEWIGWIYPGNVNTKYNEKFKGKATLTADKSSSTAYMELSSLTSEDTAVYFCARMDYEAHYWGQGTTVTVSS VL: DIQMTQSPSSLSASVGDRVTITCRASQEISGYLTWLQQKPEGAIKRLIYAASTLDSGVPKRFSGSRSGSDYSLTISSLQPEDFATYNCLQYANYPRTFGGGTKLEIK
Reply: 7.52e+06

Task item: Indicate its recorded kon; the binder in question is hu5E3-IgG2 (antibody, V domains shown, human IgG2/kappa; also called humanized 5E3 IgG2) VH: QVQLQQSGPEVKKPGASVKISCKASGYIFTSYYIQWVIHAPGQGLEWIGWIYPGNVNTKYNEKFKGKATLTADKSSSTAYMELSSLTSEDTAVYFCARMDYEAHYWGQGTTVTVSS VL: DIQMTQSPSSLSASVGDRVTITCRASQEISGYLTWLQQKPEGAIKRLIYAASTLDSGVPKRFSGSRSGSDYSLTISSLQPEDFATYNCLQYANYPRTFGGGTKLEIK
Reply: 5.28e+06

Task item: Indicate its recorded kon; the binder in question is murine monoclonal antibody 5E3 (antibody, V domains shown, mouse antibody of the 5E3 hybridoma; also called murine 5E3; m5E3) VH: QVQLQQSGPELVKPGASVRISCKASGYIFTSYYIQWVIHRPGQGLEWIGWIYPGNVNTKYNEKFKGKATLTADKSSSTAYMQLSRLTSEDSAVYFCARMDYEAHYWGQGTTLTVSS VL: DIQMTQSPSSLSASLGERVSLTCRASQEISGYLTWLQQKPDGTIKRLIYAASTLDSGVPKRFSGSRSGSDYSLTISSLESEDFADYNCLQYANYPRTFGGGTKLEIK
Reply: 1.42e+07

Task item: Indicate its recorded kon; the binder in question is hu5E3-IgG1 (antibody, V domains shown, human IgG1/kappa; also called humanized 5E3 IgG1; IHA variant) VH: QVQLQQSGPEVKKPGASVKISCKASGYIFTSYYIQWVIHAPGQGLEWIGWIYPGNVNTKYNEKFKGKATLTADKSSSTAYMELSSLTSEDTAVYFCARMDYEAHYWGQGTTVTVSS VL: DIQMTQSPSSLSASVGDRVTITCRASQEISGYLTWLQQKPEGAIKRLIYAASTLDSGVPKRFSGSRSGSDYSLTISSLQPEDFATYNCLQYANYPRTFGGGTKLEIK
Reply: 6.56e+06
